# ASSAY_EXPLANATION: in vivo
# PARTICULARS: 10 mg, t1/2 (h), Geometric Mean
READOUT_TYPE: half-life (h)
Unit h implied. Number only.

Quick one: half-life of CC(C)(C)c1cc(C=C(C#N)C#N)cc(C(C)(C)C)c1O ?
80.6

---

# ASSAY_EXPLANATION: Acute oral gavage toxicity
# Format: in vivo
# PARTICULARS: C57BL/6, mouse, in vivo
READOUT_TYPE: LD50
Number plus unit, in that order.

Quick one: LD50 of CC(C)(C)c1cc(C=C(C#N)C#N)cc(C(C)(C)C)c1O ?
33.3 mg/kg

---

# ASSAY_EXPLANATION: in vivo
# PARTICULARS: 10 mg, t1/2 (h), Mean
READOUT_TYPE: half-life (h)
Unit h implied. Number only.

Quick one: half-life of CC(C)(C)c1cc(C=C(C#N)C#N)cc(C(C)(C)C)c1O [tyrphostin AG17, Tyrphostin AG17] ?
82.2

---

# ASSAY_EXPLANATION: in vivo
# PARTICULARS: 10 mg, t1/2 (h), Median
READOUT_TYPE: half-life (h)
Unit h implied. Number only.

Quick one: half-life of CC(C)(C)c1cc(C=C(C#N)C#N)cc(C(C)(C)C)c1O ?
75.2
